Origin of the recorded values: patent US12564638B2

// reported pIC50 per item
tested on: BT474 cells (HER2 positive breast cancer cells); test: Cell viability assay (CCK8), BT474 cells; assay type: cell-based; conditions: Homo sapiens, BT-474, Table 10, BT474, 72 hours, read-out: IC50 (half inhibitory concentration)
pIC50 (log units): -log10 of the concentration in mol/L.

Reference set (3 entries):
COc1cc2ncnc(Nc3ccc(F)c(Cl)c3)c2cc1NC(=O)/C=C/CN1CCC(NC(=O)CCCCCCNc2cccc3c2C(=O)N(C2CCC(=O)NC2=O)C3=O)CC1 (stereo not shown) [SIAIS249085] :: 7.41
COc1cc2ncnc(Nc3ccc(F)c(Cl)c3)c2cc1NC(=O)/C=C/CN1CCC(NCCCCC#Cc2cccc3c2CN(C2CCC(=O)NC2=O)C3=O)CC1 (stereo not shown) [SIAIS262117] :: 6.32
C=CC(=O)Nc1cc2c(Nc3ccc(F)c(Cl)c3)ncnc2cc1OCCCN1CCN(C(=O)CCCC(=O)N[C@H](C(=O)N2C[C@H](O)C[C@H]2C(=O)NCc2ccc(-c3scnc3C)cc2)C(C)(C)C)CC1 [SIAIS262128] :: 7.38

Consider now this further compound.
Exercise: Identify measured pIC50 corresponding to C=CC(=O)Nc1cc2c(Nc3ccc(F)c(Cl)c3)ncnc2cc1OCCCN1CCC(N2CCN(C(=O)CCCCCSc3cccc4c3CN(C3CCC(=O)NC3=O)C4=O)CC2)CC1 (stereo not shown) [SIAIS262176]
Key: 8.85

---

tested on: PC9 cells (EGFR Exon 19 del, non-small cell lung cancer cells); experiment: Cell viability assay (WST/CCK8), PC9 cells; assay type: cell-based; details: Homo sapiens, PC-9; PC9 (Exon19 Del), 72 hours, WST (CCK8); read-out: IC50 (half inhibitory concentration)
Entries and their IC50 values follow.
Only the number, expressed in nM, is required.

Observe how each entry below is paired with its result.
COc1cc2ncnc(Nc3ccc(F)c(Cl)c3)c2cc1NC(=O)/C=C/CN1CCC(N2CCN(Cc3ccc(CNc4cccc5c4CN(C4CCC(=O)NC4=O)C5=O)cc3)CC2)CC1 (stereo not drawn) :: 13
COc1cc2ncnc(Nc3ccc(F)c(Cl)c3)c2cc1NC(=O)/C=C/CN1CCN(C(=O)CSc2cccc3c2C(=O)N(C2CCC(=O)NC2=O)C3=O)CC1 (stereo not drawn) :: 167

Exercise: Return reported IC50. Input compound: COc1cc2ncnc(Nc3ccc(F)c(Cl)c3)c2cc1NC(=O)/C=C/CN1CCC(N2CCN(C(=O)CCCCCCNc3cccc4c3CN(C3CCC(=O)NC3=O)C4=O)CC2)CC1 (stereo not drawn)
Key: 1.3

---

The following compounds are shown together with reported IC50 values.
test system: HCC827 cells (EGFR Exon19 del, non-small cell lung cancer cells); test: Cell viability assay (WST/CCK8), HCC827 cells; format: cell-based; conditions: Homo sapiens, HCC827, 72 h, Table 3, poziotinib-based compounds; HCC827 (Exon19 Del); 72 hours; WST (CCK8); read-out: IC50 (half inhibitory concentration)

Worked cases, answers included:
COc1cc2ncnc(Nc3ccc(Cl)c(Cl)c3F)c2cc1OC1CCN(C(=O)CCOCCOCCOCCOCCOCCC(=O)N[C@H](C(=O)N2C[C@H](O)C[C@H]2C(=O)NCc2ccc(-c3scnc3C)cc2)C(C)(C)C)CC1 :: 240 nM
COc1cc2ncnc(Nc3ccc(Cl)c(Cl)c3F)c2cc1OC1CCN(C(=O)CSc2cccc3c2C(=O)N(C2CCC(=O)NC2=O)C3=O)CC1 (stereo not drawn) :: 51 nM

Now consider a different compound.
Exercise: State its IC50 for this compound: `COc1cc2ncnc(Nc3ccc(Cl)c(Cl)c3F)c2cc1OC1CCN(C(=O)CCOCCOCCOCCC(=O)N[C@H](C(=O)N2C[C@H](O)C[C@H]2C(=O)NCc2ccc(-c3scnc3C)cc2)C(C)(C)C)CC1`
Key: 266 nM

---

test system: PC9 cells (EGFR Exon 19 del, non-small cell lung cancer cells); test: Cell viability assay (WST/CCK8), PC9 cells; format: cell-based; settings: Homo sapiens, PC-9; Table 3, poziotinib-based compounds; PC9 (Exon 19 Del); 72 hours; WST (CCK8); read-out: IC50 (half inhibitory concentration)
assay-readout: IC50 (nM)
The answer is to be given in nM; state only the numeric part.

COc1cc2ncnc(Nc3ccc(Cl)c(Cl)c3F)c2cc1OC1CCN(C(=O)CCSc2cccc3c2C(=O)N(C2CCC(=O)NC2=O)C3=O)CC1 (centres unmarked) :: 130
COc1cc2ncnc(Nc3ccc(Cl)c(Cl)c3F)c2cc1OC1CCNCC1 [Poziotinib derivative A (SIAIS219149)] :: 17
COc1cc2ncnc(Nc3ccc(Cl)c(Cl)c3F)c2cc1OC1CCN(C(=O)CCSc2cccc3c2CN(C2CCC(=O)NC2=O)C3=O)CC1 (centres unmarked) :: 3

# input for lookup
Exercise: Provide IC50 value for the following compound: COc1cc2ncnc(Nc3ccc(Cl)c(Cl)c3F)c2cc1OC1CCN(C(=O)CNc2cccc3c2C(=O)N(C2CCC(=O)NC2=O)C3=O)CC1 (centres unmarked)
Key: 38

---

tested on: HCC827 cells (EGFR Exon19 del, non-small cell lung cancer cells); test: Cell viability assay (WST/CCK8), HCC827 cells; assay type: cell-based; settings: Homo sapiens, HCC827, 72 h, Table 3, poziotinib-based compounds; HCC827 (Exon19 Del); 72 hours; WST (CCK8); read-out: IC50 (half inhibitory concentration)
Parameter: pIC50. Scope: all listed entries.
Interpret pIC50 as the negative base-10 log of the concentration measured in mol/L.

Examples from the recorded data:
COc1cc2ncnc(Nc3ccc(Cl)c(Cl)c3F)c2cc1OC1CCN(C(=O)CCC(=O)N[C@H](C(=O)N2C[C@H](O)C[C@H]2C(=O)NCc2ccc(-c3scnc3C)cc2)C(C)(C)C)CC1 :: 7.12
COc1cc2ncnc(Nc3ccc(Cl)c(Cl)c3F)c2cc1OC1CCN(C(=O)CCOCCOCCOCCNc2cccc3c2C(=O)N(C2CCC(=O)NC2=O)C3=O)CC1 (centres unmarked) :: 7.55

Exercise: Please supply the value of reported pIC50 for the item `COc1cc2ncnc(Nc3ccc(Cl)c(Cl)c3F)c2cc1OC1CCN(C(=O)CCOCCOCCOCCOCCC(=O)N[C@H](C(=O)N2C[C@H](O)C[C@H]2C(=O)NCc2ccc(-c3scnc3C)cc2)C(C)(C)C)CC1`
Key: 6.40

Exercise: Tell us which pIC50 value is on record for `COc1cc2ncnc(Nc3ccc(Cl)c(Cl)c3F)c2cc1OC1CCN(C(=O)CCCCCCCCC(=O)N[C@H](C(=O)N2C[C@H](O)C[C@H]2C(=O)NCc2ccc(-c3scnc3C)cc2)C(C)(C)C)CC1`
Key: 7.31

Exercise: Please supply the value of reported pIC50 for the item COc1cc2ncnc(Nc3ccc(Cl)c(Cl)c3F)c2cc1OC1CCN(C(=O)CCSc2cccc3c2C(=O)N(C2CCC(=O)NC2=O)C3=O)CC1 (centres unmarked)
Key: 7.34

Exercise: Query pIC50 for COc1cc2ncnc(Nc3ccc(Cl)c(Cl)c3F)c2cc1OC1CCN(C(=O)CCOCCOCCNc2cccc3c2C(=O)N(C2CCC(=O)NC2=O)C3=O)CC1 (centres unmarked)
Key: 8.20

---

system: PC9 cells (EGFR Exon 19 del, non-small cell lung cancer cells); experiment: Cell viability assay (WST/CCK8), PC9 cells; assay type: cell-based; conditions: Homo sapiens, PC-9; PC9 (Exon19 Del), 72 hours, WST (CCK8); read-out: IC50 (half inhibitory concentration)
With a cut-off of 6 nM, any IC50 strictly below it is called YES; any IC50 meeting it or above is called NO.

Some solved cases for reference:
COc1cc2ncnc(Nc3ccc(F)c(Cl)c3)c2cc1NC(=O)/C=C/CN1CCN(C(=O)COCCOCCSc2cccc3c2CN(C2CCC(=O)NC2=O)C3=O)CC1 (centres unmarked) [SIAIS262001] :: NO
COc1cc2ncnc(Nc3ccc(F)c(Cl)c3)c2cc1NC(=O)/C=C/CN1CCN(C(=O)COCCOCCSc2cccc3c2C(=O)N(C2CCC(=O)NC2=O)C3=O)CC1 (centres unmarked) [SIAIS262005] :: NO
COc1cc2ncnc(Nc3ccc(F)c(Cl)c3)c2cc1NC(=O)/C=C/CN1CCN(C(=O)CCOCCOCCOCCOCCNc2cccc3c2C(=O)N(C2CCC(=O)NC2=O)C3=O)CC1 (centres unmarked) [SIAIS262014] :: NO

We now examine a further compound.
Exercise: Consider COc1cc2ncnc(Nc3ccc(F)c(Cl)c3)c2cc1NC(=O)/C=C/CN1CCC(N2CCN(C(=O)CCCCCCCCCCSc3cccc4c3CN(C3CCC(=O)NC3=O)C4=O)CC2)CC1 (centres unmarked) [SIAIS337038] . Does its IC50 lie strictly below 6 nM?
Key: YES

---

tested on: PC9 cells (EGFR Exon 19 del, non-small cell lung cancer cells); test: Cell viability assay (WST/CCK8), PC9 cells; type: cell-based; conditions: Homo sapiens, PC-9; PC9 (Exon19 Del), 72 hours, WST (CCK8); read-out: IC50 (half inhibitory concentration)
Quick list: pIC50 per entry.
In plain terms, pIC50 is the concentration in mol/L turned into minus its base-10 logarithm.

COc1cc2ncnc(Nc3ccc(F)c(Cl)c3)c2cc1NC(=O)/C=C/CN1CCN(C(=O)CCOCCOCCNc2cccc3c2C(=O)N(C2CCC(=O)NC2=O)C3=O)CC1 (centres unmarked) [SIAIS262013] :: 7.55

Exercise: Write down pIC50 measured for item COc1cc2ncnc(Nc3ccc(F)c(Cl)c3)c2cc1NC(=O)/C=C/CN1CCC(N2CCN(C(=O)CCCCCCCCCSc3cccc4c3CN(C3CCC(=O)NC3=O)C4=O)CC2)CC1 (centres unmarked) [SIAIS337037]
Key: 9.15

Exercise: Note pIC50 for the compound shown: COc1cc2ncnc(Nc3ccc(F)c(Cl)c3)c2cc1NC(=O)/C=C/CN1CCN(C(=O)CCCCCNc2cccc3c2CN(C2CCC(=O)NC2=O)C3=O)CC1 (centres unmarked) [SIAIS249059]
Key: 8.92
